Here, molecules appear alongside pKi reported for UniProtKB P18825 in the literature.
pKi: −log10 of the molar value.
Observable: pKi

a = COc1cc2c(cc1OC)C1=NOC(CN3CCN(C/C(C)=C/c4ccccc4)CC3)C1CO2 (centres undefined)
b = CC1=C(C(=O)NCCCN2CCC(C#N)(c3ccc(F)cc3F)CC2)[C@@H](c2ccc(F)c(F)c2)CC(=O)N1
c = COc1cc(OC)c(C2NCCc3c2[nH]c2ccc(F)cc32)cc1OC (centres undefined)
d = CO/C(O)=C1\C(C)=NC(C)=C(C(=O)NCCCN2CCC(c3ccccc3)(c3ccccc3)CC2)C1c1ccc(Cl)c(Cl)c1 (centres undefined)
hey, can you rank those molecules up there by pKi? biggest number first please List each label, following the requested order.
a, d, c, b

----------
# Test Target: Alpha-2C adrenergic receptor (Homo sapiens, UniProt P18825)
# Sequence (P18825 whole entry): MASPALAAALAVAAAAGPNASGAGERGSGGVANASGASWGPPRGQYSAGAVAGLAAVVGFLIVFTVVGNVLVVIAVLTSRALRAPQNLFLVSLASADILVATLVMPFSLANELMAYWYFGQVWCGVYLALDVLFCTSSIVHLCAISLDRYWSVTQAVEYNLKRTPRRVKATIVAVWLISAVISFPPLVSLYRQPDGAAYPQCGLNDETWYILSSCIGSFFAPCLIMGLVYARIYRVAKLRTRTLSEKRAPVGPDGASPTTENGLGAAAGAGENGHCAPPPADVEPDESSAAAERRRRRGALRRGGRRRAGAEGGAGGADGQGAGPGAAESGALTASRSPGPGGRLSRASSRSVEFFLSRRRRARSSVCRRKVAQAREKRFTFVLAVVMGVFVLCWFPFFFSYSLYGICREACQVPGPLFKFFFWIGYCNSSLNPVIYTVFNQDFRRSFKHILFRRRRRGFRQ
Several reports have described Ki for Alpha-2C adrenergic receptor (Homo sapiens, UniProt P18825); a selection of those results is presented here.
Observable: Ki (nM)

Recorded Ki of CO/C(O)=C1\C(C)=NC(C)=C(C(=O)NCCCN2CCC(c3ccccc3)(c3ccccc3)CC2)C1c1ccc2c(c1)OCO2 (stereo not drawn) , please.
575

Given the compound CC1(C)C2c3ccccc3C[C@@]21c1c[nH]cn1 (single isomer, unassigned) , what is its reported Ki?
1.17

Can you look up the measured Ki of COc1cc2c(cc1OC)C1=NO[C@@H](CN3CCN(Cc4ccc5ccccc5c4)CC3)[C@@H]1CO2 (stereo in doubt; (+)15h) for me?
0.8

Tell me the measured Ki of Fc1ccc2c(c1)CC(CC1CN=CN1)C2 (stereo not drawn) , please.
19

What value of Ki has been reported for the following compound? `COc1cc2c(cc1OC)C1=NO[C@@H](CN3CCN(C/C=C(\C)c4ccco4)CC3)[C@@H]1CO2`
0.4

1 = c1c[nH]c(Nc2ccc3nccnc3c2)n1
2 = CC(C)(C)OC(=O)N1CCCC1CNC1CCC(c2cc(F)ccc2F)(S(=O)(=O)c2ccc(Cl)cc2)CC1 (stereo not drawn)
Between these two entries, 1 and 2 , state which has the higher Ki. Refer to your chosen entry by its label in the reply.
1
(1: 8800 nM, 2: 653 nM)

----------
# Test Target: Alpha-2C adrenergic receptor (Homo sapiens)
# Sequence (P18825 whole entry): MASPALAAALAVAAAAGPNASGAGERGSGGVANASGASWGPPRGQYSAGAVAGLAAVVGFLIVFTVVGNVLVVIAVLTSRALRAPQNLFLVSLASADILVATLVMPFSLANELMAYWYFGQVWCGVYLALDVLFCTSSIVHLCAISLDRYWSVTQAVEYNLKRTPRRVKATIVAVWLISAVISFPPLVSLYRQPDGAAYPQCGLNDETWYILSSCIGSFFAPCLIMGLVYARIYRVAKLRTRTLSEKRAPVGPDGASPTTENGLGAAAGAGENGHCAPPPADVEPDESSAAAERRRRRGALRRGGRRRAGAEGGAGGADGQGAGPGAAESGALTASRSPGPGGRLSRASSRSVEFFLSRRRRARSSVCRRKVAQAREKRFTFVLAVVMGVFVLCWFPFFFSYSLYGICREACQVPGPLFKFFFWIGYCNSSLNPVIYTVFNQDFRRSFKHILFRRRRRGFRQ
pKi: −log10 of the molar value.
Across several studies, molecules have been characterized by their pKi on Alpha-2C adrenergic receptor (Homo sapiens); a selection follows.
Observable: pKi

A = COc1cc2c(cc1OC)C1=NO[C@@H](CN3CCN(C/C=C/c4cccc(F)c4)CC3)[C@@H]1CO2
B = Cc1c(Nc2ncc[nH]2)ccc2nccnc12
Pick one, A or B : lowest reported pKi. // output: label of the selected item
B
(B: 6.47, A: 9.15)

1 = Cc1ccccc1-c1ccccc1OC(C)C1=NCCN1 (stereo unspecified)
2 = CC(Oc1ccccc1-c1cccs1)C1=NCCN1 (stereo unspecified)
// compare measured pKi, left 1 , right 2 , return larger Write the label of whichever entry you select.
2
(2: 7.14, 1: 6.63)

P = CN1CCN(c2cc(-c3ccc(C#N)cc3)nc(N)n2)CC1
Q = CC(C)O[C@H]1c2ccccc2[C@H]2C[C@]21c1c[nH]cn1 (relative stereo)
I'm curious, which of these has a smaller pKi number: P or Q ? Identify your pick by its label.
P
(P: 6.54, Q: 7.05)
